system: recombinant HXB2-D WT; assay: microbe, parasite or virus in culture; format: cell-based, HIV-1; conditions: Human immunodeficiency virus 1, HXB2, read-out: EC50 in CBMCs
Examples of compounds with documented EC50 follow.
quantity-name: EC50 (nM)

{"columns": ["compound", "experimental-value"],
 "data": [
  ["Nc1nc2c(ncn2[C@H]2CO[C@@H](CO)O2)c(=O)[nH]1 [DXG, (−)-β-D-1,3-dioxolane guanine]", 210],
  ["Nc1nc(N)c2ncn([C@H]3CO[C@@H](CO)O3)c2n1 [DAPD, (−)- -D-2,6-diaminopurine-1,3-dioxolane]", 1100]
]}

---

Assay: Cytotoxicity, [3H]-thymidine uptake, PBMC
Type: cell-based
Details: human, PHA-stimulated PBMCs
Experimental: The cellular toxicity of the BCH compounds were assessed on various cells using [^3H]-thymidine uptake. The various cells, including Molt-4, HT1080, DU-145, HepG 2 and HSF, were plated at a concentration of 1-2×10^3 cells per well (96 well plates). However, PHA-stimulated PBMCs were cultured at a concentration of 4×10^4. […] Using this instrument the extracted DNA is adsorbed onto filters, washed and the incorporated [^3H]-thymidine is then counted.
Examples of molecules with documented CC50 at 72 h follow.
quantity-name: CC50 at 72 h

{"columns": ["molecule", "experimental-value"],
 "data": [
  ["Nc1nc2c(ncn2[C@H]2CO[C@@H](CO)O2)c(=O)[nH]1 [DXG, (−)-β-D-1,3-dioxolane guanine]", "> 500 µM"],
  ["Nc1ccn([C@H]2CC[C@@H](CO)O2)c(=O)n1", "32.5 µM"],
  ["Nc1nc(N)c2ncn([C@H]3CO[C@@H](CO)O3)c2n1 [DAPD, (−)- -D-2,6-diaminopurine-1,3-dioxolane]", "> 500 µM"]
]}

---

assay: Cytotoxicity, [3H]-thymidine uptake, HT-1080; format: cell-based; settings: human, HT-1080 cells

{"columns": ["compound", "value-prefix", "CC50 at 72 h / µM"],
 "data": [
  ["Nc1nc(N)c2ncn([C@H]3CO[C@@H](CO)O3)c2n1 [DAPD, (−)- -D-2,6-diaminopurine-1,3-dioxolane]", ">", 500],
  ["Nc1ccn([C@H]2CC[C@@H](CO)O2)c(=O)n1 [ddC, 2′,3′-dideoxycytidine]", "=", 2],
  ["Nc1ccn([C@@H]2CS[C@H](CO)O2)c(=O)n1 [lamivudine, reference compound]", ">", 500],
  ["Nc1nc2c(ncn2[C@H]2CO[C@@H](CO)O2)c(=O)[nH]1 [DXG, (−)-β-D-1,3-dioxolane guanine]", ">", 500],
  ["Cc1cn([C@H]2C[C@H](N=[N+]=[N-])[C@@H](CO)O2)c(=O)[nH]c1=O [AZT, zidovudine, reference compound]", "=", 5]
]}

---

assay: Cytotoxicity, [3H]-thymidine uptake, Molt-4; type: cell-based; conditions: human, Molt-4 cells

{"columns": ["compound", "value-prefix", "CC50 at 72 h / nM"],
 "data": [
  ["Nc1nc2c(ncn2[C@H]2CO[C@@H](CO)O2)c(=O)[nH]1 [DXG, (−)-β-D-1,3-dioxolane guanine]", ">", 500000],
  ["Cc1cn([C@H]2C[C@H](N=[N+]=[N-])[C@@H](CO)O2)c(=O)[nH]c1=O [AZT, zidovudine, reference compound]", "=", 3000],
  ["Nc1nc(N)c2ncn([C@H]3CO[C@@H](CO)O3)c2n1 [DAPD, (−)- -D-2,6-diaminopurine-1,3-dioxolane]", ">", 500000],
  ["Nc1ccn([C@H]2CC[C@@H](CO)O2)c(=O)n1", "=", 2000]
]}
